Kindly state IC50 for each of the entries shown.
# MEASURED ON: TRKA (G667C) (Homo sapiens, UniProt P04629, G667C)
# Sequence (P04629 33-796 G667C): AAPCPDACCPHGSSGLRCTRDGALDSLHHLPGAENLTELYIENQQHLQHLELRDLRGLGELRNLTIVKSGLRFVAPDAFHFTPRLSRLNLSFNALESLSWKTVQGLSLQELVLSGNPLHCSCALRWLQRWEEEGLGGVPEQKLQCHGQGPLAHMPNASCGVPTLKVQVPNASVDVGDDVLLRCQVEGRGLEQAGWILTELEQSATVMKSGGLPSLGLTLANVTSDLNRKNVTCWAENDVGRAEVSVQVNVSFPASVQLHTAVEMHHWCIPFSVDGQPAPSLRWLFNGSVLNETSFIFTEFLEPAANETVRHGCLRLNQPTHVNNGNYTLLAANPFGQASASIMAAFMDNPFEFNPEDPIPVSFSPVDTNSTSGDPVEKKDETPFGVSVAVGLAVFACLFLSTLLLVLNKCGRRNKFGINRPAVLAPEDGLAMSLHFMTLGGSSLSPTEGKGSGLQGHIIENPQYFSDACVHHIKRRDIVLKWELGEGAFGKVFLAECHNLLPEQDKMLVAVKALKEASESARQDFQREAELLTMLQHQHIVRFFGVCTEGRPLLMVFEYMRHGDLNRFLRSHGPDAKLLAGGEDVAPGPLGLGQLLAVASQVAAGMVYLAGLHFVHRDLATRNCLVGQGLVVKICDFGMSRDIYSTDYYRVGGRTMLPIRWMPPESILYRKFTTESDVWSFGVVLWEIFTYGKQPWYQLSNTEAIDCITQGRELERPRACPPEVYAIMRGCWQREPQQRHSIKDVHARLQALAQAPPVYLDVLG
# TEST METHOD NOTES: Detection of TRK inhibitory activity (ADP-Glo kinase assay), TRKA (G667C)

List IC50 for every entry below, keeping the order given.
1. C[C@@H]1CCCc2ncc(F)cc2[C@H]2CCCN2c2ccc3ncnc(c3n2)N1
2. CCOC(=O)c1cnc2ccc3nc2c1NCCCOc1ccc(F)cc1[C@H]1CCCN31

(A)
1: < 50 nM; 2: > 500 nM

Quick batch: IC50 for everything below.
1. Fc1cnc2c(c1)[C@H]1CCCN1c1ccc3ncnc(c3n1)NCCCC2
2. C[C@@H]1CCOc2ccc(F)cc2[C@H]2CCCN2c2ccc3ncnc(c3n2)N1
3. C[C@@H]1CCOc2ccc(F)cc2[C@H]2CCCN2c2ccc3ncc(F)c(c3n2)N1

(A)
< 50 nM
< 50 nM
< 50 nM

---

Assign pIC50 to each entry below.
# Tested on: Ba/F3 ETV6-NTRK3-G623R cell line
# TEST METHOD NOTES: Cell experiment, CellTiter-Glo viability, Ba/F3 ETV6-NTRK3-G623R
# Format: cell-based
# TEST PARAMETERS: Mus musculus, BaF3, 72 hours, CTG
Numbers only, as −log10 of the molar value.

Solved cases (3 shown):
(Q) Find the measured pIC50 of C[C@@H]1CCOc2ccc(F)cc2[C@H]2CCCN2c2ccc3ncnc(c3n2)N1 and report it.
(A) 7.38

(Q) Write down pIC50 measured for item CN1CCN(c2ccc(C(=O)Nc3n[nH]c4ccc(Cc5cc(F)cc(F)c5)cc34)c(NC3CCOCC3)c2)CC1 [RXDX-101, reference compound]
(A) 6.33

(Q) Output pIC50 of C[C@H]1CCNc2ncnc3ccc(nc23)N2CCC[C@@H]2c2cc(F)ccc2O1
(A) 8.44

---
(Q) Please report the measured pIC50 for C[C@@H]1CCOc2ccc(F)cc2[C@H]2CCCN2c2ccc3ncc(C#N)c(c3n2)N1
(A) 7.76

---

# MEASURED ON: TRKA Protein (wild type) (Homo sapiens)
# Sequence (P04629 33-796): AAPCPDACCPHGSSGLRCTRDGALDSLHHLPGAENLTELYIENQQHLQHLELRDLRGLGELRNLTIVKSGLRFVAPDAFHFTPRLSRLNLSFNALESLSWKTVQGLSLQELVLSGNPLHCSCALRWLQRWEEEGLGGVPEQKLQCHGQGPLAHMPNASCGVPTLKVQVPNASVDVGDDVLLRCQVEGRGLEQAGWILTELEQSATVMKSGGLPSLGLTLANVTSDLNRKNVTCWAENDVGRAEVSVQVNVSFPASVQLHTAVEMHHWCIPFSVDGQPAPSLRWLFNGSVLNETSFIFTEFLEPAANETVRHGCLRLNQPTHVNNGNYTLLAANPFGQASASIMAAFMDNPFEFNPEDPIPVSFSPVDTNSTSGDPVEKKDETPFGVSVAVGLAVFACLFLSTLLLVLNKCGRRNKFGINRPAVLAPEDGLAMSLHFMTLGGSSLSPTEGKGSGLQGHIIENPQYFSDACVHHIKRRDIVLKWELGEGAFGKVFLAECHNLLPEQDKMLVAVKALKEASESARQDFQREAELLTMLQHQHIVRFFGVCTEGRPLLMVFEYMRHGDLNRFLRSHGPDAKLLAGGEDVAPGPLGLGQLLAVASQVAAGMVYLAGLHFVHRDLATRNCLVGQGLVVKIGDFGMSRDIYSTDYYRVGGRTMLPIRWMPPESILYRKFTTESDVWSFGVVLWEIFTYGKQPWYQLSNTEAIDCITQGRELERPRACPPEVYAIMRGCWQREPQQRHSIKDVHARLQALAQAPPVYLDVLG
pIC50: −log10 of the molar value.
Exercise: state measured pIC50 for each of the compounds provided.

Examples with answers:
(Q) GET pIC50 where system = TRKA Protein (wild type) (Homo sapiens) and item = CN1Cc2cc(F)ccc2OCCCNc2ncnc3ccc1nc23
(A) > 7.30

(Q) // output pIC50; input C[C@@H]1CCOc2ccc(F)cc2[C@@H]2CCCN2c2ccc3ncc(C#N)c(c3n2)N1 ; system TRKA Protein (wild type) (Homo sapiens)
(A) 6.30 to 7.30

(Q) Report its pIC50 with TRKA Protein (wild type) (Homo sapiens) as the test system: C[C@H]1CCOc2ccc(F)cc2[C@H]2CCCN2c2ccc3ncc(C#N)c(c3n2)N1
(A) > 7.30

(Q) Identify measured pIC50 obtained with TRKA Protein (wild type) (Homo sapiens) for NC(=O)c1cnc2ccc3nc2c1NCCCOc1ccc(F)cc1[C@H]1CCCN31 .
(A) > 7.30

(Q) Answer with pIC50 of C[C@H]1Nc2ccc3ncnc(c3n2)NCCCOc2ccc(F)cc21 measured for TRKA Protein (wild type) (Homo sapiens).
(A) > 7.30

(Q) Write down measured pIC50 (TRKA Protein (wild type) (Homo sapiens)) for this compound. Fc1cnc2c(c1)[C@H]1CCCN1c1ccc3ncnc(c3n1)NCCCC2
(A) > 7.30

(Q) Check TRKA Protein (wild type) (Homo sapiens) data and give pIC50 for CN1Cc2cc(F)ccc2OCCNc2ncnc3ccc1nc23 .
(A) 6.30 to 7.30

(Q) State pIC50 (TRKA Protein (wild type) (Homo sapiens)) of C[C@H]1CCNc2c(C#N)cnc3ccc(nc23)N2CCC[C@@H]2c2cc(F)ccc2O1 .
(A) > 7.30

--- query ---
(Q) With TRKA Protein (wild type) (Homo sapiens) as the test system, provide measured pIC50 for this compound: C[C@H]1CCNc2ncnc3ccc(nc23)N2CCC[C@@H]2c2cc(F)ccc2O1
(A) > 7.30
